src = patent US20040024024A1

# measured on: Human recombinant MMP-2 (Homo sapiens)
# Construct: made in house; host or cells: MMP-2-transfected p2AHT2 cells
# Sequence (P08253 110-660): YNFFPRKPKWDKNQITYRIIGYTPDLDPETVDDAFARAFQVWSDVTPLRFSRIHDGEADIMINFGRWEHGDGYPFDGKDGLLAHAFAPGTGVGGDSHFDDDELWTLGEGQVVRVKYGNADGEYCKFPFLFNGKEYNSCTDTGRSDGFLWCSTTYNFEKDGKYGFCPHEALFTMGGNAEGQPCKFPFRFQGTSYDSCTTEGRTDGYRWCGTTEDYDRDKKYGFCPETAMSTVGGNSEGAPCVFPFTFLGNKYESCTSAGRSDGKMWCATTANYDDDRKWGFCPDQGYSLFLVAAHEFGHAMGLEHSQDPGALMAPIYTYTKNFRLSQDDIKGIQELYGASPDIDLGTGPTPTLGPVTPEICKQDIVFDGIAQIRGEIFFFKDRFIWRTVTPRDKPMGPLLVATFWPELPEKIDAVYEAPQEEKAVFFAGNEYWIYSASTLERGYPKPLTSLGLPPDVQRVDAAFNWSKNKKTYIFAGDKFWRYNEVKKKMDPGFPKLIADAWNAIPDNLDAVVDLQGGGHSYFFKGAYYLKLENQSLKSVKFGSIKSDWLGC
# method summary: In vitro MMP inhibition, IC50 determination (fluorogenic substrate I)
# Type: biochemical
# test settings: value outside parenthesis
pIC50: −log10 of the molar value.
endpoint name: pIC50

Guide cases for pIC50, answers given:
O=C(NO)C1(S(=O)(=O)c2ccc(OCCCc3nnc(-c4ccc(Cl)cc4)o3)cc2)CCOCC1 | 7.88
Cc1cc(-c2cccc(CCOc3ccc(S(=O)(=O)C4(C(=O)NO)CCOCC4)cc3)c2)ccc1Cl | 5.73
O=C(NO)C1(S(=O)(=O)c2ccc(OCCCc3cccc(-c4ccncc4)c3)cc2)CCOCC1 | 7.11
Cc1cc(-c2cccc(CCCOc3ccc(S(=O)(=O)C4(C(=O)NO)CCOCC4)cc3)c2)ccc1Cl | 5.51
COc1ccc(C(=O)C(C#N)CCOc2ccc(S(=O)(=O)C3(C(=O)NO)CCOCC3)cc2)cc1 (centres unmarked) | 6.96

a = O=C(NO)C1(S(=O)(=O)c2ccc(OCCc3cccc(-c4ccccc4)c3)cc2)CCOCC1
b = Cc1cccc(-c2noc(CCCOc3ccc(S(=O)(=O)C4(C(=O)NO)CCOCC4)cc3)n2)c1
c = CC(C)c1cccc(NC(=O)CCCOc2ccc(S(=O)(=O)C3(C(=O)NO)CCOCC3)cc2)c1
List the 3 entries from lowest pIC50 to highest pIC50 value. Use the labels to give the ranking in the order requested.
a, b, c
(a: 6.61, b: 7.10, c: 7.48)
